- target: UniProt:Q96FL8
- assay-procedure: Uptake ratio in MATE1-overexpressing HEK293 cells vs empty vector (2.5 μM, 1 min, HPLC-MS/MS)
- Type: cell-based
property-label: MATE1 ratio
Lab note: jot down the number only; don't add units.

Below: 6 compounds and their reported MATE1 ratio.
1. COc1ccc(CC(C)N)cc1 (stereo not shown) [para-Methoxyamphetamine]    1.07
2. Oc1ccc2c3c1O[C@H]1[C@H](O)CC[C@@]4(O)[C@@H](C2)N(CC2CC2)CC[C@]314 [6-beta-Naltrexol]    1.20
3. NCCCCCN [Cadaverine]    0.23
4. CN(C)CCc1ccc(O)cc1 [Hordenine]    1.16
5. COc1cc(CCN)ccc1O [3-Methoxy-p-tyramine]    4.05
6. NC1Cc2cc3c(cc2C1)OCO3 [5,6-Methylenedioxy-2-aminoindane]    1.14

Quick one: MATE1 ratio for C[C@]12CCC(=O)C=C1CC[C@@H]1[C@@H]2CC[C@@]2(C)[C@H]1CC[C@]2(C)O [17-Alpha-methyltestosterone] ? 1.17

Another compound: COc1ccc2c3c1O[C@H]1C(=O)CC[C@@]4(O)[C@@H](C2)NCC[C@]314 [Noroxycodone] 1.39

Another compound: CNC(C)Cc1ccc2c(c1)OCO2 (stereo not shown) [3,4-Methylendioxy-N-methylamphetamine] 1.14

Another compound: CNCCc1c[nH]c2ccc(O)cc12 [N-Methylserotonin] 26.34

Another compound: CCN1C[C@]2(COC)[C@H](O)C[C@H](OC)[C@@]34[C@@H]5C[C@@]6(O)[C@H](OC(=O)c7ccccc7)[C@@H]5[C@@](OC(C)=O)([C@@H]([C@H](OC)[C@H]23)[C@@H]14)[C@@H](O)[C@@H]6OC [Aconitine] 1.13

Another compound: CC(CCc1ccc(O)cc1)NCC(O)c1ccc(O)cc1 (stereo not shown) [Ractopamine] 4.56

Another compound: Cn1c(=O)[nH]c2nc[nH]c2c1=O [1-Methylxanthine] 1.08

---

- target: MATE2K (Homo sapiens)
- Sequence (Q86VL8 1-566 isoform Q86VL8-3): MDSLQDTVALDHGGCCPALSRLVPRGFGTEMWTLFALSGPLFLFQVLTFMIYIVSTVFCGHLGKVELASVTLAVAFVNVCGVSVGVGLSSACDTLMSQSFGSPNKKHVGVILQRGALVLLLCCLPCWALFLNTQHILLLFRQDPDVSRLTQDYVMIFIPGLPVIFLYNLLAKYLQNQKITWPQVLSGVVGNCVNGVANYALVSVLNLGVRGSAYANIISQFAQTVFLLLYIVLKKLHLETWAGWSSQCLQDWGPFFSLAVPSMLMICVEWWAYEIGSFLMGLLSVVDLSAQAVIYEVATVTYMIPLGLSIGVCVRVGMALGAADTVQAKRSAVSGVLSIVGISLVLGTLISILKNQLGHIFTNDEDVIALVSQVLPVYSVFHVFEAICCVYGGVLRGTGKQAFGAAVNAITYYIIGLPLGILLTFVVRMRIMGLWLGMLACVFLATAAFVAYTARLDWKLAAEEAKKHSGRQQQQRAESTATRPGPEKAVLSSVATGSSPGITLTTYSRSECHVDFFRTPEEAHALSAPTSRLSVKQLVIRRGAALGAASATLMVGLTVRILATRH
- assay-procedure: Uptake ratio in MATE2K-overexpressing HEK293 cells vs empty vector (2.5 μM, 1 min, HPLC-MS/MS)
- Format: cell-based
- Set-up: key: 1 = substrate; 0 = no substrate
- measurement-conditions: Table S4
Some compounds, each annotated with its measured MATE2 substrate*.
Lab note: jot down the number only; don't add units.

Below: 5 compounds and their reported MATE2 substrate*.
1) O=C1Cc2cc(CCN3CCN(c4nsc5ccccc45)CC3)c(Cl)cc2N1    0
2) CN(C)CCc1c[nH]c2ccc(C[C@H]3COC(=O)N3)cc12 [Zolmitriptan]    1
3) CN(C)CCc1c[nH]c2ccc(C[C@H]3COC(=O)N3)cc12 [Zolmitriptan (R), Zolmitriptan]    1
4) CN(C)CCOC1=Cc2ccccc2Sc2ccc(Cl)cc21 [Zotepin]    0
5) O=c1ncccn1[C@@H]1O[C@H](CO)[C@@H](O)[C@H]1O    0

Next item in the queue.
Quick one: MATE2 substrate* for CN(C)CCc1c[nH]c2ccc(C[C@H]3COC(=O)N3)cc12 [Zolmitriptan (S), Zolmitriptan] ? 1

---

Some compounds, each annotated with its measured MATE1 ratio.
- target: MATE1 (Homo sapiens)
- Sequence (Q96FL8 1-570): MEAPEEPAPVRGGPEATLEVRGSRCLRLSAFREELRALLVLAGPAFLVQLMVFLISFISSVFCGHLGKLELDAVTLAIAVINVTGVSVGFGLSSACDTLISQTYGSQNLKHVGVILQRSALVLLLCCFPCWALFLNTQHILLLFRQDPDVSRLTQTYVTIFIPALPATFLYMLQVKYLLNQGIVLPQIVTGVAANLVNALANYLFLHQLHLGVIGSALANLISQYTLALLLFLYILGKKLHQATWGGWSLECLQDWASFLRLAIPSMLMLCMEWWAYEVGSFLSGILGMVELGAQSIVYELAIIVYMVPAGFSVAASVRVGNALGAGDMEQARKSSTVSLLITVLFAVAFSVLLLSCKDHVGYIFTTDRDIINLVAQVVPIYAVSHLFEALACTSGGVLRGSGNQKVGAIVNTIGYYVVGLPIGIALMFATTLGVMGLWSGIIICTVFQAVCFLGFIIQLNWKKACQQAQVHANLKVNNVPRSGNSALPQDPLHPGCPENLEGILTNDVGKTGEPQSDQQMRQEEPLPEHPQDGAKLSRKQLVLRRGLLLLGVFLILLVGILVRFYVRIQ
- assay-procedure: Uptake ratio in MATE1-overexpressing HEK293 cells vs empty vector (2.5 μM, 1 min, HPLC-MS/MS)
- Assay type: cell-based
- measurement-conditions: fold uptake over empty vector, 2.5 μM, 1 min
Lab note: jot down the number only; don't add units.

Below: 8 compounds and their reported MATE1 ratio.
1) Fc1ccc([C@@H]2CCNC[C@H]2COc2ccc3c(c2)OCO3)cc1    1.92
2) CC(C)NCC(O)COc1ccc(CCOCC2CC2)cc1 (stereo not drawn)    1.37
3) O=S(=O)(c1cccc2cnccc12)N1CCCNCC1    1.50
4) C#CCN[C@@H]1CCc2ccccc21 [Rasagiline]    1.18
5) O=C(O[C@H]1CN2CCC1CC2)N1CCc2ccccc2[C@@H]1c1ccccc1    1.28
6) CC1(C)S[C@@H]2[C@H](NC(=O)[C@H](N)c3ccc(O)cc3)C(=O)N2[C@H]1C(=O)O    1.82
7) CC(C)C(=O)Oc1ccc(CO)cc1[C@H](CCN(C(C)C)C(C)C)c1ccccc1    1.09
8) Nc1nc(=O)c2nc(CNc3ccc(C(=O)N[C@@H](CCC(=O)O)C(=O)O)cc3)cnc2[nH]1    1.00

Quick one: MATE1 ratio for CCN(CC)C(=O)Nc1ccc(OCC(O)CNC(C)(C)C)c(C(C)=O)c1 (stereo not drawn) ? 11.01
